biological target: LRRK2-G2019S(human) (Homo sapiens, UniProt Q5S007, G2019S); construct: DYKDDDDK (FLAG); assay: LRRK2-G2019S Kinase activity assay (Lanthascreen TR-FRET); details: full-length LRRK2 G2019S, LRRKtide substrate, 1.1mM ATP
Sequence (Q5S007 whole entry G2019S): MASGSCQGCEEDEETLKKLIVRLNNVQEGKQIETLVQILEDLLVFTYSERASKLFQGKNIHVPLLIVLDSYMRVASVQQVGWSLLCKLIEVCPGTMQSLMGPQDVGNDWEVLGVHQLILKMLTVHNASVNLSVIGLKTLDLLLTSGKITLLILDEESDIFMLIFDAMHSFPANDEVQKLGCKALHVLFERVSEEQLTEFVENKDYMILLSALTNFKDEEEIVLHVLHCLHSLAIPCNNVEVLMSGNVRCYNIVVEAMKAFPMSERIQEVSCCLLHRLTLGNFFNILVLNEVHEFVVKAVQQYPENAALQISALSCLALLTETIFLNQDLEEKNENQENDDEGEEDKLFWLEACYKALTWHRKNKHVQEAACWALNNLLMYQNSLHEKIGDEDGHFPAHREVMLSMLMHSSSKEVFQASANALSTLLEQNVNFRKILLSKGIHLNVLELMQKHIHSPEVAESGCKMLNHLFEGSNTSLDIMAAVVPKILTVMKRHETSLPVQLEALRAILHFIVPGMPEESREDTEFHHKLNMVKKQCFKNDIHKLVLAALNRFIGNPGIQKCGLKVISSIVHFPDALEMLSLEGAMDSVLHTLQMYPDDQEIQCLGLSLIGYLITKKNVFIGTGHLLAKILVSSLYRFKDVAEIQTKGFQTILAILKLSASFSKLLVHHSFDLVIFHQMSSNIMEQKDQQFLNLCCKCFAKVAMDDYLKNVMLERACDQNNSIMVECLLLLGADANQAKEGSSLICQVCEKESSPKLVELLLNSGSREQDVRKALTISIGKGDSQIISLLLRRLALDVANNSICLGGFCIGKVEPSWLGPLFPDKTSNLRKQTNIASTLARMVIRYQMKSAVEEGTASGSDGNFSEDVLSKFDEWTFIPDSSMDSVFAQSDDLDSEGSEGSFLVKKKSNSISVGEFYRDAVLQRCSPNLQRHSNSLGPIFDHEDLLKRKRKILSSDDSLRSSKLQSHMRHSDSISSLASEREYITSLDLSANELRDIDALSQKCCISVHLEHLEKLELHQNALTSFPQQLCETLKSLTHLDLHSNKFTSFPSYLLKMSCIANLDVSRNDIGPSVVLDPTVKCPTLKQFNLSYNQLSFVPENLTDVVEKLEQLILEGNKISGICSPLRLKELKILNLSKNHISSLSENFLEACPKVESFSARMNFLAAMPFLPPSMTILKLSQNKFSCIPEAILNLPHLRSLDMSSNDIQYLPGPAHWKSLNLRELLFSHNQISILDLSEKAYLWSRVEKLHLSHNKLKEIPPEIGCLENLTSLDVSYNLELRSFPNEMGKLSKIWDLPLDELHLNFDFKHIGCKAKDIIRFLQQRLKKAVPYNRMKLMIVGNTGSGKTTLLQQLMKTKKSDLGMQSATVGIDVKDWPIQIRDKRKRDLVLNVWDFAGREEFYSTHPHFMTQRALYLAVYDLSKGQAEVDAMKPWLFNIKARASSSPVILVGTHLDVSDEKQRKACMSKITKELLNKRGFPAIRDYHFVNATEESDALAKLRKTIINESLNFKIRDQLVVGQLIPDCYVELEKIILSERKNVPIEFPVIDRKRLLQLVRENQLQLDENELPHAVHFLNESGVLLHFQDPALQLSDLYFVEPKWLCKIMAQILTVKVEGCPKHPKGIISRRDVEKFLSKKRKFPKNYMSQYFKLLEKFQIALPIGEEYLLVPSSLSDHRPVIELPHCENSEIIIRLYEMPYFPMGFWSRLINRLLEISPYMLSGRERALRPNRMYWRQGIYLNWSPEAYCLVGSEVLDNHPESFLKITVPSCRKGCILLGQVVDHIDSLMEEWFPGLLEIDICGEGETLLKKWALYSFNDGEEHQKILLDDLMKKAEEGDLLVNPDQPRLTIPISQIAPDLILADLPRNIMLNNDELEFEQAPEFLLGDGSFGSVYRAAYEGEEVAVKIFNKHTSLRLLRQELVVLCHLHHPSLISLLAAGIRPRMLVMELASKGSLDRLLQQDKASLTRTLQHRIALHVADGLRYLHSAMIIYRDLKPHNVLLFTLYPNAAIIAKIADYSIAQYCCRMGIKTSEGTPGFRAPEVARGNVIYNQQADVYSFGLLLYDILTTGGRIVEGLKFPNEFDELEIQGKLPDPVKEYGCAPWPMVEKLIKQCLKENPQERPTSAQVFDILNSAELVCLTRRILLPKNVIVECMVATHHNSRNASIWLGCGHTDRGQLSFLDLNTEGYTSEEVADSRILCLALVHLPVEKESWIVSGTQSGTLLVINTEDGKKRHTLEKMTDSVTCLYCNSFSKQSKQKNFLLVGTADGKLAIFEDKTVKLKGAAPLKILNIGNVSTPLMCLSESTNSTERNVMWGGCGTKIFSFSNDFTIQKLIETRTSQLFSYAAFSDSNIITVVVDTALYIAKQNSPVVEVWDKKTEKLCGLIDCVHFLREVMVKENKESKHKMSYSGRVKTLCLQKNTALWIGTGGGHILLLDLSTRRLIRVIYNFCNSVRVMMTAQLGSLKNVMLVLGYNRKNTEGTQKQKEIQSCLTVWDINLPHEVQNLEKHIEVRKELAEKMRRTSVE
pIC50: −log10 of the molar value.
ASSAY METRIC: pIC50

CC(=O)N1CC(Oc2nn(C)cc2Nc2ncc3cc(C#N)n([C@H]4COC[C@@H]4C)c3n2)C1(C)C (single isomer, unassigned) [Example 18]: 8.70
[2H]C([2H])([2H])n1cc(Nc2ncc3cc(C#N)n(C(C)COC)c3n2)c(OC2COC2C)n1 (single isomer, unassigned): 8.30

A = COCC(C)n1c(C#N)cc2cnc(Nc3cn(C)nc3OC3COC3C)nc21 (single isomer, unassigned)
B = CC(=O)N1CC(Oc2nn(C)cc2Nc2ncc3cc(C#N)n([C@H]4COC[C@@H]4C)c3n2)C1(C)C (single isomer, unassigned) [Example 17]
Returns: the label, A or B , whose recorded pIC50 is the lower number. Pick one and reply with its label. A

----------
molecular target: LRRK2(human) WT (Homo sapiens, UniProt Q5S007)
Sequence (Q5S007 whole entry): as the sequence (Q5S007 whole entry G2019S) above, with S2019G counted along it
ASSAY METRIC: IC50 (nM)
Respond with the bare value in nM.

Fill in IC50 for record CC(=O)N1CC(Oc2nn(C)cc2Nc2ncc3cc(C#N)n([C@H]4COC[C@@H]4C)c3n2)C1(C)C (single isomer, unassigned) 3

Where these numbers come from: patent EP4105218A1
